# PROTOCOL TEXT: collision cross section (DTIM-MS, N2); higher = larger ion
# CONDITIONS USED: ion adduct: [M+H]+
MEASURED QUANTITY: collision cross section (Å²)

Would you please look over these solved cases?
>>> reported_result("CC1(C)C=Cc2c(ccc3c2OC[C@@H](c2ccc(O)cc2O)C3)O1 [Glabridin]")
180.63
>>> reported_result("O=C1C[C@@H](c2ccccc2)Oc2cc(O)cc(O)c21 [Pinocembrin]")
157.96
>>> reported_result("COc1cc(C=CC(=O)NCCc2ccc(O)cc2)ccc1O [N-trans-Feruloyltyramine]")
181.28
>>> reported_result("C=C1C(=O)O[C@H]2[C@H]1CC/C(C)=C\\CC[C@@]1(C)O[C@@H]21 [Parthenolide]")
154.23
>>> reported_result("CC1(C)CCC[C@](C)([C@H]2CC[C@]3(C)[C@@H]2[C@H](O)C[C@@H]2[C@@]4(C)CC[C@H](O)C(C)(C)[C@@H]4CC[C@]23C)O1 [Panaxadiol]")
218.82
>>> reported_result("COc1cc(O)ccc1/C=C/C(=O)c1ccc(O)cc1 [Echinatin]")
167.45

P. O=C(Nc1nc(-c2ccc(O)c(O)c2)c(-c2ccccc2)s1)c1ccc(O)c(O)c1 [COH29]
Q. Nc1[nH]c(=O)ncc1F [Fluorocytosine]
Data request: Quick check, higher collision cross section between P and Q ? Record your answer as the label of the chosen record.
Data returned: P

====

# PROTOCOL TEXT: collision cross section (DTIM-MS, N2); higher = larger ion
# CONDITIONS USED: ion adduct: [M-H]-
MEASURED QUANTITY: collision cross section (Å²)

>>> reported_result("N#C[C@H](O[C@@H]1O[C@H](CO[C@@H]2O[C@H](CO)[C@@H](O)[C@H](O)[C@H]2O)[C@@H](O)[C@H](O)[C@H]1O)c1ccccc1 [Amygdalin]")
205.69
>>> reported_result("C=CC(C)(C)c1cc(/C=C/C(=O)c2ccc(O)cc2)c(OC)cc1O [Licochalcone A]")
194.56
>>> reported_result("COc1cc2c(cc1OC)[C@@H]1C(=O)c3ccc4c(c3O[C@@H]1CO2)C=CC(C)(C)O4 [Deguelin]")
198.36
>>> reported_result("C=C(C)[C@H]1Cc2c(ccc3c2O[C@@H]2COc4cc(OC)c(OC)cc4[C@@H]2C3=O)O1 [Rotenone]")
198.71
>>> reported_result("COc1cc([C@H]2Oc3cc([C@H]4Oc5cc(O)cc(O)c5C(=O)[C@@H]4O)ccc3O[C@@H]2CO)ccc1O [Silybin]")
204.63
>>> reported_result("COc1cc(C2c3cc4c(cc3C(O)C3COC(=O)C23)OCO4)cc(OC)c1O (stereo unspecified) [4'-Demethylpodophyllotoxin]")
197.38

====

# PROTOCOL TEXT: collision cross section (DTIM-MS, N2); higher = larger ion
# CONDITIONS USED: ion adduct: [M-H]-
MEASURED QUANTITY: collision cross section (Å²)

>>> reported_result("COc1cc(O)c2c(=O)cc(-c3ccc(O)cc3)oc2c1")
166.12
>>> reported_result("CC(C)=CC(=O)OC1Cc2cc3ccc(=O)oc3cc2OC1(C)C (stereo not drawn)")
180.82
>>> reported_result("NC[C@H]1O[C@H](O[C@H]2[C@H](O)[C@@H](O[C@H]3O[C@H](CO)[C@@H](O)[C@H](N)[C@H]3O)[C@H](N)C[C@@H]2N)[C@H](N)C[C@@H]1O")
203.66
>>> reported_result("COc1cc(O)ccc1/C=C/C(=O)c1ccc(O)cc1")
171.54
>>> reported_result("O=C(Nc1ccc(Cl)cc1)Nc1ccc(Cl)c(Cl)c1")
178.67
>>> reported_result("CC1(C)CC[C@]2(C(=O)O)CC[C@]3(C)C(=CC[C@@H]4[C@@]5(C)C[C@@H](O)[C@H](O)C(C)(C)[C@@H]5CC[C@]43C)[C@@H]2C1")
222.53
>>> reported_result("C=C[C@H]1[C@H](O[C@@H]2O[C@H](CO)[C@@H](O)[C@H](O)[C@H]2O)OC=C(C(=O)OC)[C@H]1CC(=O)O")
190.5
>>> reported_result("O=c1cc(-c2ccccc2)c2ccc(O)c(O)c2o1 [7,8-Dihydroxy-4-phenylcoumarin]")
157.01
